This collection of values is drawn from ChEMBL document CHEMBL3120098.

As shown below, each of these molecules has a reported Activity value.
tested on: Pregnane X receptor (Homo sapiens); test: Activation of PXR (unknown origin) at 10 uM by reporter gene assay
Expressed in %, but write only the number.

Answered examples (5):
Cc1cc2c(cc1F)c(C#N)c(-c1ccc(S(=O)(=O)N[C@@H](C)C(F)(F)F)cn1)n2-c1ncccc1F ... 59
CCc1cc2c(cc1F)c(C#N)c(-c1ccc(S(=O)(=O)N[C@@H](C)C(F)(F)F)cn1)n2-c1ncccn1 ... 37
CCc1cc2c(cc1F)c(C#N)c(-c1ccc(S(=O)(=O)N[C@@H](C)C(F)(F)F)cn1)n2-c1ncc(F)cn1 ... 71
CCc1cc2c(cc1F)c(C#N)c(-c1ccc(S(=O)(=O)N[C@@H](C)C(F)(F)F)cn1)n2-c1ccccn1 ... 54
Cc1cc2c(cc1F)c(C#N)c(-c1ccc(S(=O)(=O)N[C@@H](C)C(F)(F)F)cn1)n2-c1ncccn1 ... 36

# evaluate next
Determine from records and report Activity for `Cc1cc2c(cc1F)c(C#N)c(-c1ccc(S(=O)(=O)N[C@@H](C)C(F)(F)F)cn1)n2-c1ncc(F)cn1`
96

----------
experiment: AUC (0 to 6 hrs) in Sprague-Dawley rat at 10 mg/kg, po; format: ADME, organism-based; parameters: time < 6 hr, dose 10 mg/kg, route oral; settings: plasma
measured-attribute: AUC(0-t) at 6 h (µM·h)
Expressed in µM·h, but write only the number.

Answered examples (4):
CCc1cc2c(cc1F)c(C#N)c(-c1ccc(S(=O)(=O)N[C@@H](C)C(F)(F)F)cn1)n2-c1nccs1 ... 2.75
Cc1cc2c(cc1F)c(C#N)c(-c1ccc(S(=O)(=O)N[C@@H](C)C(F)(F)F)cn1)n2C1CCC1 ... 1.1
C[C@H](NS(=O)(=O)c1ccc(-c2c(C#N)c3cc(F)c(OC(F)F)cc3n2C2CCC2)nc1)C(F)(F)F ... 13.4
Cc1cc2c(cc1F)c(C#N)c(-c1ccc(S(=O)(=O)N[C@@H](C)C(F)(F)F)cn1)n2-c1cccnc1 ... 6.39

Determine from records and report AUC(0-t) at 6 h for `CCc1cc2c(cc1F)c(C#N)c(-c1ccc(S(=O)(=O)N[C@@H](C)C(F)(F)F)cn1)n2-c1ncc(F)cn1`
8.69

Determine from records and report AUC(0-t) at 6 h for `CCc1cc2c(cc1F)c(C#N)c(-c1ccc(S(=O)(=O)N[C@@H](C)C(F)(F)F)cn1)n2-c1ccc(F)cn1`
1.79

Determine from records and report AUC(0-t) at 6 h for `CCc1cc2c(cc1F)c(C#N)c(-c1ccc(S(=O)(=O)N[C@@H](C)C(F)(F)F)cn1)n2-c1ncc(C)cn1`
7.24
